Source listed as patent US10040781B2.

molecular target: TBK1 (Homo sapiens (Human), UniProt Q9UHD2); assay: TBK1 TR-FRET enzymatic assay;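 also: phosphorylation of a biotinylated Ser/Thr peptide by purified full-length recombinant TBK1, read by TR-FRET after 240 min at 25 °C, IC50 is the geometric mean of at least four runs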
Sequence (Q9UHD2 whole entry): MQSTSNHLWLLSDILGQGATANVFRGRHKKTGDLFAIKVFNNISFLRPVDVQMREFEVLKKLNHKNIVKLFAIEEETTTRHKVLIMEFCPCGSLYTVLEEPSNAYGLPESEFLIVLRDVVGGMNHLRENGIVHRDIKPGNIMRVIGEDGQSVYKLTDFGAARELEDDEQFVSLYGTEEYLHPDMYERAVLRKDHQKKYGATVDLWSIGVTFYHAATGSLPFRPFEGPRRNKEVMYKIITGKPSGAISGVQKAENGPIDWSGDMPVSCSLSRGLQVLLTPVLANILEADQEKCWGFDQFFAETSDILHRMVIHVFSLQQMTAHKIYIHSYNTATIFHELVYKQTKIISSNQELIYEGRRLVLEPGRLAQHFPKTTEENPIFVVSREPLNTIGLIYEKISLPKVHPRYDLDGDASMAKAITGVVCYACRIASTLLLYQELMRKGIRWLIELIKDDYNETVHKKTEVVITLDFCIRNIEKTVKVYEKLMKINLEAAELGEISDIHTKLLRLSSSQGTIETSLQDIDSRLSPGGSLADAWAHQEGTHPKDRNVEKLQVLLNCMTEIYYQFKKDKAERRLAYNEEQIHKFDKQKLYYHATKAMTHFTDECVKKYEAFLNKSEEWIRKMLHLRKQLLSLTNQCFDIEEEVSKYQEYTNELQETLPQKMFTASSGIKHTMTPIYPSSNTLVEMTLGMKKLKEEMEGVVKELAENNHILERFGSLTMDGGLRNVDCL
Structures can show the parent of a compound that is named as a salt.
Please assign false (0) whenever IC50 is at or above 7 nM, and true (1) whenever it is below.

Reference set (6 entries):
- molecule: "N#Cc1cc(-c2ncnc(Nc3ccc(N4CCN(C5COC5)CC4)cc3)n2)ccc1OC1CCN(C(=O)c2ccc[nH]2)CC1(F)F (centres unmarked)"
  label_value: "true (1)"
- molecule: "C[C@H](O)C(=O)N1CC[C@H](Oc2ccc(-c3ncnc(Nc4cnn(C)c4CO)n3)cc2C#N)[C@H](F)C1"
  label_value: "false (0)"
- molecule: "COCC(=O)N1CC[C@H](Oc2ccc(-c3ncnc(Nc4ccc(C5CCN(C)CC5)c(C)c4)n3)cc2C#N)[C@H](F)C1"
  label_value: "true (1)"
- molecule: "Cc1nn(C)c2cc(Nc3ncnc(-c4ccc(O[C@H]5CCN(C(=O)[C@H](C)O)C[C@H]5F)c(C#N)c4)n3)ccc12"
  label_value: "true (1)"
- molecule: "Cc1cc(-c2ncnc(Nc3ccc(N4CCN(C5COC5)CC4)cc3)n2)cc(C#N)c1O[C@H]1CCN(C(=O)CO)C[C@H]1F"
  label_value: "false (0)"
- molecule: "CS(=O)(=O)c1ccc(-c2ncnc(Nc3ccc(N4CCN(C5COC5)CC4)cc3)n2)cc1 [Example 484, trifluoroacetic acid salt]"
  label_value: "false (0)"

Challenge: Given the entry `COc1cc(Nc2ncnc(-c3ccc(O[C@H]4CCN(C(=O)CC#N)C[C@H]4F)c(C#N)c3)n2)ccc1N1CCC(N2CCOCC2)CC1` , would its reported IC50 be below 7 nM?
Response given: true (1)

Challenge: Given the entry N#Cc1cc(-c2ncnc(Nc3ccc(N4CCN(C5COC5)CC4)cc3)n2)ccc1OC1CN(C(=O)CO)CC1(F)F (centres unmarked) , would its reported IC50 be below 7 nM?
Response given: true (1)

Challenge: Given the entry `N#Cc1cc(-c2ncnc(Nc3ccc(N4CCN(C5COC5)CC4)cc3)n2)ccc1O[C@H]1CCN(C(=O)NCCO)C[C@H]1F` , would its reported IC50 be below 7 nM?
Response given: false (0)

Challenge: Given the entry `CC(=O)N1CC[C@H](Oc2ccc(-c3ncnc(Nc4ccc(N5CCO[C@@H](CO)C5)cc4)n3)cc2C#N)C(F)(F)C1` , would its reported IC50 be below 7 nM?
Response given: true (1)

Challenge: Given the entry `C[C@H]1C[C@H](Oc2ccc(-c3ncnc(Nc4ccc(N5CCN(C6COC6)CC5)cc4)n3)cc2C#N)CCN1C(=O)CO` , would its reported IC50 be below 7 nM?
Response given: false (0)

Challenge: Given the entry `N#Cc1cc(-c2ncnc(Nc3ccc(N4CCN(C5COC5)CC4)cc3)n2)ccc1N1CCC2(C1)OCCO2` , would its reported IC50 be below 7 nM?
Response given: false (0)

Challenge: Given the entry `CS(=O)(=O)N1CC(Oc2ccc(-c3ncnc(Nc4ccc(N5CCN(C6COC6)CC5)cc4)n3)cc2C#N)C1` , would its reported IC50 be below 7 nM?
Response given: false (0)
